# test_system: T1R umami taste receptor (Homo sapiens, UniProt Q7RTX0+Q7RTX1)
# Sequence (Q7RTX1 21-841): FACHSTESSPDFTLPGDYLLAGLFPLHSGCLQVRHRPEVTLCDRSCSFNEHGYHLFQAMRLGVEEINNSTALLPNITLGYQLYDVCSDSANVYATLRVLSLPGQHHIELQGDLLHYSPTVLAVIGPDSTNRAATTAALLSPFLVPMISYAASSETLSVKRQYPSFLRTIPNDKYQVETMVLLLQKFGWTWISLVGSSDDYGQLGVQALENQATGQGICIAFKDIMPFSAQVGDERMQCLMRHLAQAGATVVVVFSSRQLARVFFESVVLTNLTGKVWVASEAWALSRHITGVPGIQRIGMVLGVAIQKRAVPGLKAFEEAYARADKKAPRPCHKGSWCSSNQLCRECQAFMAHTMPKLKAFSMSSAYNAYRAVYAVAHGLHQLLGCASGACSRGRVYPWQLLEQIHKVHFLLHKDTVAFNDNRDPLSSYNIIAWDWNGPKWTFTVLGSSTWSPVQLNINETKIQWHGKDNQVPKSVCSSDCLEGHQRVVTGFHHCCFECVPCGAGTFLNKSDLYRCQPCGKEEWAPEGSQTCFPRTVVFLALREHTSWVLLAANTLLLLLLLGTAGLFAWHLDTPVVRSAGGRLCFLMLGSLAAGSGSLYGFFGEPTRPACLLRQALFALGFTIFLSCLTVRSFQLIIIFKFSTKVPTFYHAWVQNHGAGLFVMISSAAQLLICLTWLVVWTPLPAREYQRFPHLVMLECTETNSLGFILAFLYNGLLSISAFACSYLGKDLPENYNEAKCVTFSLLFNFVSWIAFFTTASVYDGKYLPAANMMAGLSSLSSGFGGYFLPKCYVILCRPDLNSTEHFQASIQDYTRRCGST
# Sequence (Q7RTX0 21-852): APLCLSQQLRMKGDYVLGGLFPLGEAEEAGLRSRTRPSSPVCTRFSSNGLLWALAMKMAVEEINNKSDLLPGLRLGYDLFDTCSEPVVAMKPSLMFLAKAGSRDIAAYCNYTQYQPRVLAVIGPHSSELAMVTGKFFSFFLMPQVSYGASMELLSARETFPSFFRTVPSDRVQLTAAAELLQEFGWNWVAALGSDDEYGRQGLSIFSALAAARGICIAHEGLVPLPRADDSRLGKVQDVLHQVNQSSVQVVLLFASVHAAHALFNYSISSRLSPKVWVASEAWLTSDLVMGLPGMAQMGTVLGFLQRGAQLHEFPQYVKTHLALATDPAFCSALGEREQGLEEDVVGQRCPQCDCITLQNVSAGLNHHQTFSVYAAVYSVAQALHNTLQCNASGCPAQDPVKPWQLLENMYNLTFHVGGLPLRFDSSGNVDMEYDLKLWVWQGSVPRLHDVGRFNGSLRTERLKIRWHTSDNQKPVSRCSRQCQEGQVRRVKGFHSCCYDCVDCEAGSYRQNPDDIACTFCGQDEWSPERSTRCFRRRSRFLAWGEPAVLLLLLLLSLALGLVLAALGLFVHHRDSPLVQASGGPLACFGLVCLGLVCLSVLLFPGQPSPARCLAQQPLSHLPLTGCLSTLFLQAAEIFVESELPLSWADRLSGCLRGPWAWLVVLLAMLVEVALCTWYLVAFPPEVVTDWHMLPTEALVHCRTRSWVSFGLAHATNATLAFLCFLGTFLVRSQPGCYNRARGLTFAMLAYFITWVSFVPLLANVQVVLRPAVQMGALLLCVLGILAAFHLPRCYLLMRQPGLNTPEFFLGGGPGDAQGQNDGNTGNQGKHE
# assay_procedure: in vitro cell-based assay, cells expressing the T1R umami taste receptor; enhancement of MSG
# experimental_conditions: MSG enhancement ratio at a particular concentration (concentration not given)
# Method: Each of Compounds 101-145 was synthesized according to one of the general procedures set forth above in Examples 1 and Example 2. Thereafter, the compounds were tested in an in vitro cell-based assay having cells that express the T1R umami taste receptor. Dose-binding curves were recorded and the EC50 was determined for enhancement of MSG binding. Table 2 sets forth the calculated EC50 values for certain tested compounds as well as the MSG enhancement ratio at a particular concentration.
Answer each item with its documented MSG Enh. Ratio.

Query: State the recorded MSG Enh. Ratio for this entry: CC(C)/C=C/C(=O)N[C@@H](CCC(=O)O)C(=O)O
Reply: 1.0

Query: I'd like to know its MSG Enh. Ratio. The molecule in question is CC(C)C[C@@H](CO)NC(=O)c1ccc(C(C)C)cc1
Reply: 1.4

Query: Using the record for O=C(O)CC[C@H](NC(=O)/C=C/c1ccccc1)C(=O)O [Compound 134, Cinnamoyl-L-glutamate] , report its MSG Enh. Ratio.
Reply: 1.2

Query: Fill in: MSG Enh. Ratio of Cc1ccc(C(=O)N[C@H](CO)CC(C)C)cc1C is ___
Reply: 2.8

Query: Requested field: MSG Enh. Ratio. Item: CC(C)[C@H](NC(=O)/C=C/c1ccccc1)C(=O)O
Reply: 1.7

----------
# test_system: T1R umami taste receptor (Homo sapiens, UniProt Q7RTX0+Q7RTX1)
# assay_procedure: in vitro cell-based assay, cells expressing the T1R umami taste receptor; enhancement of MSG
# experimental_conditions: MSG enhancement ratio at a particular concentration (concentration not given)
Assignment: determine reported MSG Enh. Ratio for the given compounds.

Query: Fill in the blank: the reported MSG Enh. Ratio of CC[C@H](C)[C@H](NC(=O)/C=C/c1ccc(OC)cc1)C(=O)O is ____.
Reply: 1.5

Query: For the compound COc1cc(OC)cc(C(=O)N[C@H](CO)Cc2ccccc2)c1 , what MSG Enh. Ratio is on record?
Reply: 1.9

Query: # get_value(readout='MSG Enh. Ratio', item= CC[C@H](C)[C@@H](CO)NC(=O)c1ccc(C(C)C)cc1 )
Reply: 1.2

Query: # get_value(readout='MSG Enh. Ratio', item= CCOc1ccc(/C=C/C(=O)N[C@H](CO)[C@@H](C)CC)cc1 )
Reply: 6.0

Query: # MSG Enh. Ratio lookup, item O=C(O)CC[C@H](NC(=O)c1ccc2c(c1)OCO2)C(=O)O
Reply: 1.2

Query: Could you share which MSG Enh. Ratio value was measured for COc1ccc(/C=C/C(=O)N[C@@H](CCC(=O)O)C(=O)O)cc1 ?
Reply: 2.2

Query: For the compound shown here, COc1ccc(/C=C/C(=O)N[C@@H](Cc2ccc(OC)cc2)C(=O)O)cc1 [Compound 140] , give the reported MSG Enh. Ratio.
Reply: 1.8

Query: What MSG Enh. Ratio value was documented for this compound, CC(C)c1ccc(C(=O)N[C@H](CO)Cc2ccccc2)cc1 ?
Reply: 1.4

Query: Report MSG Enh. Ratio for Cc1ccc(C(=O)N[C@H](CC(C)C)C(=O)O)cc1C please.
Reply: 1.8

Query: Fill blank: measured MSG Enh. Ratio of the compound CC[C@H](C)[C@@H](CO)NC(=O)c1cc(OC)cc(OC)c1 is ____.
Reply: 1.1

Query: Item COc1ccc(/C=C/C(=O)N[C@H](CC(C)C)C(=O)O)cc1 has what recorded MSG Enh. Ratio?
Reply: 4.7

Query: Recorded MSG Enh. Ratio of Cc1ccc(C(=O)N[C@H](CO)Cc2ccccc2)cc1C , please.
Reply: 3.4

Query: What measured MSG Enh. Ratio goes with CCC(C)[C@@H](CO)NC(=O)/C=C/c1ccc(OC)cc1 (stereo in doubt) ?
Reply: 1.5

Query: Endpoint output: MSG Enh. Ratio of COc1cc(OC)cc(C(=O)N[C@H](CO)CC(C)C)c1 . Value?
Reply: 1.3

Query: For Cc1ccc(C(=O)N[C@H](Cc2ccccc2)C(=O)O)cc1C , what is its reported MSG Enh. Ratio?
Reply: 1.3

Query: Tell me the measured MSG Enh. Ratio of Cc1ccc(C(=O)N[C@@H](CCC(=O)O)C(=O)O)cc1C , please.
Reply: 1.4

Query: Which MSG Enh. Ratio value is on record for COc1ccc(C[C@H](NC(=O)/C=C/c2ccc(OC)c(OC)c2)C(=O)O)cc1 ?
Reply: 1.6
